# ASSAY EXPLANATION: yeast display, Sf9 membrane polyspecificity reagent, FACS + sequencing; frameworks hold sequencing errors
METRIC: polyreactivity (PSR sort gate)

stdin: Name the reported polyreactivity (PSR sort gate) value associated with the sequence `QVQLVESGGGLVQAGGSLRLSCAASGSTFGDYAMGWYRQAPGKERELVAAMSRGGSTYYADSVKGRFTISRDNAKNTVYLQMNSLKPEDTAVYYCNKDEGYSASPDGSTFDYWGQGTQVTVSS`
stdout: low polyreactivity

stdin: Name the reported polyreactivity (PSR sort gate) value associated with the sequence `QVQLVESGGGLVQAGGSLRLSCAASGIILPVYAMGWYRQAPGKERELVAAIRWCSGRTYYADSVKGRFTISRDNAKNTVFLQMNSLKPEDTAVYYCAKDGGQRKYDYWGQGTQVTVSS`
stdout: low polyreactivity

stdin: Name the reported polyreactivity (PSR sort gate) value associated with the sequence `QVQLVESGGGLVQAGGSLRLSCAASGSIFYRYALGWYRQAPGKERELVAALSYSGGSTYYADSVKGRFTISRDNAKNTVYLQMNSLKPQETAVYYCANDSPPPISDYSRYYGYGYWGQGTQVTVSS`
stdout: low polyreactivity
